B1: Ankyrin repeat and SAM domain-containing protein 6, residues 774 to 836; numbered along this chain, Q68DC2 (parent)
chain: DEDELTGILKKLSLEKYQPIFEEQEVDMEAFLTLTDGDLKELGIKTDGSRQQILAAISELNAG

Variants of: B1
Assay Text: abundance fitness (aPCA) (normalised: wild type 0, dead -1); higher = more abundant; growth selection in yeast, the domain comes from the species named
Stated Conditions: Homo sapiens
Readout Name: abundance fitness
Note: the reply should be a number with no unit written.

abundance fitness for M28H is -0.218

abundance fitness for R50N is -0.653

abundance fitness for I44C is -0.458

abundance fitness for E23Y is -0.543

abundance fitness for L39M is -0.437

abundance fitness for A55R is 0.108

abundance fitness for R50I is -0.292

abundance fitness for L12Y is 0.09

abundance fitness for L39P is -0.747

abundance fitness for E25P is -0.653

abundance fitness for P19I is -0.509
